# subject_of_test: Glutathione peroxidase 1 (Homo sapiens)
# assay: Primary qHTS Assay for Inhibitors of Recombinant Selenoprotein Glutathione Peroxidase 1 (GPX1) (AID 1845191); further: nearly all actives have a fitted effect of over 65% in size
# condition_description: recombinant GPX1, GR-coupled NADPH fluorescence, 15 min; series mostly up to 48.8 µM
Inconclusive results are not listed. Active and inactive are the calls of the source. The call rests on the fitted dose curve; in most records, active means well fitted inhibition curve with a large enough effect; inconclusive means small, poorly fitted or top-dose-only effect; inactive means flat fitted curve, though single readings scatter.

{"smiles_text": "O=C(NCc1ccncc1)C12C[C@H]3C[C@@H](C1)CC(c1ccc(Cl)cc1)(C3)C2", "outcome": "inactive"}
{"smiles_text": "CC(=O)N(C)C1(c2ccccc2)CCN(CCC[C@]2(c3ccc(Cl)c(Cl)c3)CCCN(C(=O)c3ccccc3)C2)CC1", "outcome": "inactive"}
{"smiles_text": "CC[C@@]1(O)C[C@H](O[C@H]2C[C@H](N(C)C)[C@H](O[C@H]3C[C@H](O)[C@H](O[C@H]4CCC(=O)[C@H](C)O4)[C@H](C)O3)[C@H](C)O2)c2c(cc3c(c2O)C(=O)c2c(O)cccc2C3=O)[C@@H]1C(=O)OC", "outcome": "inactive"}

The values you see were collected from PubChem BioAssay (NCATS).
